Biological target: T1, Rhesus SLC34A2 (Rhesus, UniProt F7HDA3 1-690)
T1 construct: whole, on cells
T1 sequence: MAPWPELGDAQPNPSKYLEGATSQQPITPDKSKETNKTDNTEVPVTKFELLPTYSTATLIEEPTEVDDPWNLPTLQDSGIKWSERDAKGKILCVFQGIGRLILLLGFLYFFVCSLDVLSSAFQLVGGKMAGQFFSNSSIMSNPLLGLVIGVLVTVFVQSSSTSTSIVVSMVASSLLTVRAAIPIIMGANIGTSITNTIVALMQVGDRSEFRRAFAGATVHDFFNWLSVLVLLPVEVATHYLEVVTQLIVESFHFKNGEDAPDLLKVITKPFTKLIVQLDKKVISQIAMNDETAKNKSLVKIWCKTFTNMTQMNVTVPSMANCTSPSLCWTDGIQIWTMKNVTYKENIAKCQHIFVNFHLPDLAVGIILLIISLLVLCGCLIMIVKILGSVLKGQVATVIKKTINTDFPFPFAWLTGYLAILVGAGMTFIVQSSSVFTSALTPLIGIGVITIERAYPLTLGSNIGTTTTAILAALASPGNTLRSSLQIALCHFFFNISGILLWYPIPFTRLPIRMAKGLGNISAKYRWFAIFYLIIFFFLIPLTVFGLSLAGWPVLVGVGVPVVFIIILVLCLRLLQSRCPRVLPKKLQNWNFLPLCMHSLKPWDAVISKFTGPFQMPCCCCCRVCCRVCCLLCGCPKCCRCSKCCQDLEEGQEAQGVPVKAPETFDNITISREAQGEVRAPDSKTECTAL
Test: FACS, HEK293/Rhesus SLC34A2 cells
Examples of binders with documented pEC50 follow.
# reply with the number alone; pEC50 is -log10 of concentration in mol/L

Below, each entry is followed by its recorded pEC50 result.
binder	pEC50
xi62G10E4G8 hIgG1 (antibody, V domains shown, chimeric, hIgG1) VH: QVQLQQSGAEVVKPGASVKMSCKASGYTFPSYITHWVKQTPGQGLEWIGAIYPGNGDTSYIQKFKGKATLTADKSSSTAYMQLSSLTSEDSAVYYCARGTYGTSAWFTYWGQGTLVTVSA VL: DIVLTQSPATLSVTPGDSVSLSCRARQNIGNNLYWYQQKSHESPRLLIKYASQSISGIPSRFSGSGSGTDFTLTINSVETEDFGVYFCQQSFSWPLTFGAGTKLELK	8.74
91C9F1.p1 hIgG1 (antibody, V domains shown, PTM-derisked chimeric, hIgG1; also called 91C9F1.pl hIgG1) VH: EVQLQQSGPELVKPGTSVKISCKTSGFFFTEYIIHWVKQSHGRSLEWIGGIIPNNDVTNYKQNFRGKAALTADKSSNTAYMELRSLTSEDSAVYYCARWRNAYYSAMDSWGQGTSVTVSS VL: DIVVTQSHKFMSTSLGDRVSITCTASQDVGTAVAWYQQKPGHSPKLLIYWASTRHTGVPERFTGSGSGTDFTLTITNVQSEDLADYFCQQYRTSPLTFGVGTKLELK	9.10

// below: pEC50 requested for another binder
Provide pEC50 value for the following binder: 91C9F1.p1.z6 hIgG1 (antibody, V domains shown, humanized hIgG1) VH: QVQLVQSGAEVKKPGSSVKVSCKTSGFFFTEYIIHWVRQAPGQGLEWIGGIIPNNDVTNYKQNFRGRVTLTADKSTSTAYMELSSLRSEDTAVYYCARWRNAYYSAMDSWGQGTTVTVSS VL: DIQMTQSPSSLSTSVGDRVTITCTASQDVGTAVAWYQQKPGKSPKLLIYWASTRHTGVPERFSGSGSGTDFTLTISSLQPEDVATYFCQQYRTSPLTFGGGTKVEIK
8.06
